Each item that follows carries a reported viability, T/C.
Test system: 439559-082-T-J2-PDC spheroid viability
Experiment: Anticancer human tumor 439559-082-T-J2-PDC patient-derived colon adenocarcinoma cell line growth inhibition [POLQ]
Conditions: second compound 1 µM; first compound 0.01 µM; stronger effect = lower value; spheroids with HUVEC and MSC
outcome measure: viability, T/C (%)

1. CCc1c2c(nc3ccc(O)cc13)-c1cc3c(c(=O)n1C2)COC(=O)[C@]3(O)CC + Cc1cccc(N(C)C(=O)C2C(O)CCN2c2nc(C)cc(C(F)(F)F)c2C#N)c1 : 90.9
2. CCc1c2c(nc3ccc(O)cc13)-c1cc3c(c(=O)n1C2)COC(=O)[C@]3(O)CC + COC1C(OC(N)=O)C(O)C(Oc2ccc3c(O)c(NC(=O)c4ccc(O)c(CC=C(C)C)c4)c(=O)oc3c2C)OC1(C)C : 83.7
3. CC[C@@]1(O)C(=O)OCc2c1cc1n(c2=O)Cc2cc3c(CN(C)C)c(O)ccc3nc2-1 + COC1C(OC(N)=O)C(O)C(Oc2ccc3c(O)c(NC(=O)c4ccc(O)c(CC=C(C)C)c4)c(=O)oc3c2C)OC1(C)C : 97.5
4. COc1cccc(OCCCN)c1-c1cc(Nc2cnc(C#N)cn2)n[nH]1 + Cc1cccc(N(C)C(=O)C2C(O)CCN2c2nc(C)cc(C(F)(F)F)c2C#N)c1 : 94.2
5. COc1cccc(OCCCN)c1-c1cc(Nc2cnc(C#N)cn2)n[nH]1 + Nc1ccc(C#CCN(C(=O)Cc2ncc(C(F)(F)F)cc2C(F)(F)F)c2ccc(F)cc2)nn1 : 105
6. C=CCn1c(=O)c2cnc(Nc3ccc(N4CCN(C)CC4)cc3)nc2n1-c1cccc(C(C)(C)O)n1 + Cc1cccc(N(C)C(=O)C2C(O)CCN2c2nc(C)cc(C(F)(F)F)c2C#N)c1 : 99.8
7. Cn1ncnc1[C@H]1c2n[nH]c(=O)c3cc(F)cc(c23)N[C@@H]1c1ccc(F)cc1 + Cc1cccc(N(C)C(=O)C2C(O)CCN2c2nc(C)cc(C(F)(F)F)c2C#N)c1 : 92.8
8. CC[C@@]1(O)C(=O)OCc2c1cc1n(c2=O)Cc2cc3c(CN(C)C)c(O)ccc3nc2-1 + Cc1cccc(N(C)C(=O)C2C(O)CCN2c2nc(C)cc(C(F)(F)F)c2C#N)c1 : 93
9. C=CCn1c(=O)c2cnc(Nc3ccc(N4CCN(C)CC4)cc3)nc2n1-c1cccc(C(C)(C)O)n1 + Nc1ccc(C#CCN(C(=O)Cc2ncc(C(F)(F)F)cc2C(F)(F)F)c2ccc(F)cc2)nn1 : 102
10. CCc1c2c(nc3ccc(O)cc13)-c1cc3c(c(=O)n1C2)COC(=O)[C@]3(O)CC + Nc1ccc(C#CCN(C(=O)Cc2ncc(C(F)(F)F)cc2C(F)(F)F)c2ccc(F)cc2)nn1 : 81
11. CC[C@@]1(O)C(=O)OCc2c1cc1n(c2=O)Cc2cc3c(CN(C)C)c(O)ccc3nc2-1 + Nc1ccc(C#CCN(C(=O)Cc2ncc(C(F)(F)F)cc2C(F)(F)F)c2ccc(F)cc2)nn1 : 97.9

###

System: 439559-082-T-J2-PDC spheroid viability
Test: Anticancer human tumor 439559-082-T-J2-PDC cell line growth inhibition [POLQ];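 also: spheroids exposed to compounds for seven days before readout; 100% = DMSO vehicle control viability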
Settings: second compound 3.16 µM; first compound 1 µM; stronger effect = lower value; spheroids with HUVEC and MSC
Each item that follows carries a reported viability, T/C.
outcome measure: viability, T/C (%)

1. C#Cc1c(F)ccc2cc(O)cc(-c3ncc4c(N5CC6CCC(C5)N6)nc(OCC56CCCN5CC(F)C6)nc4c3F)c12 (stereo not given) + Cc1cccc(N(C)C(=O)C2C(O)CCN2c2nc(C)cc(C(F)(F)F)c2C#N)c1 : 65.7
2. C#Cc1c(F)ccc2cc(O)cc(-c3ncc4c(N5CC6CCC(C5)N6)nc(OCC56CCCN5CC(F)C6)nc4c3F)c12 (stereo not given) + COC1C(OC(N)=O)C(O)C(Oc2ccc3c(O)c(NC(=O)c4ccc(O)c(CC=C(C)C)c4)c(=O)oc3c2C)OC1(C)C : 63.9
3. COc1cc2cc(C(=O)CCC(=O)O)sc2cc1OC + Nc1ccc(C#CCN(C(=O)Cc2ncc(C(F)(F)F)cc2C(F)(F)F)c2ccc(F)cc2)nn1 : 91.3
4. CCCS(=O)(=O)Nc1ccc(F)c(C(=O)c2c[nH]c3ncc(-c4ccc(Cl)cc4)cc23)c1F + Cc1cccc(N(C)C(=O)C2C(O)CCN2c2nc(C)cc(C(F)(F)F)c2C#N)c1 : 102
5. COc1cccc2c1C(=O)c1c(O)c3c(c(O)c1C2=O)CC(O)(C(=O)CO)CC3OC1CC(N)C(O)C(C)O1 (stereo not given) + Cc1cccc(N(C)C(=O)C2C(O)CCN2c2nc(C)cc(C(F)(F)F)c2C#N)c1 : 70
6. COc1cc(C2c3cc4c(cc3C(OC3OC5COC(C)OC5C(O)C3O)C3COC(=O)C23)OCO4)cc(OC)c1O (stereo not given) + Nc1ccc(C#CCN(C(=O)Cc2ncc(C(F)(F)F)cc2C(F)(F)F)c2ccc(F)cc2)nn1 : 84.8
7. O=c1[nH]cc(F)c(=O)[nH]1 + Cc1cccc(N(C)C(=O)C2C(O)CCN2c2nc(C)cc(C(F)(F)F)c2C#N)c1 : 72
8. COc1ccc([C@@H](O)c2cc(-c3ncnc4cc(N5CCOCC5)ccc34)c(F)cc2Cl)nn1 + Nc1ccc(C#CCN(C(=O)Cc2ncc(C(F)(F)F)cc2C(F)(F)F)c2ccc(F)cc2)nn1 : 80.2
9. CCc1c2c(nc3ccc(O)cc13)-c1cc3c(c(=O)n1C2)COC(=O)[C@]3(O)CC + Cc1cccc(N(C)C(=O)C2C(O)CCN2c2nc(C)cc(C(F)(F)F)c2C#N)c1 : 47.2
10. CC1COCCN1c1cc(C2(S(C)(=N)=O)CC2)nc(-c2ccnc3[nH]ccc23)n1 (stereo not given) + COC1C(OC(N)=O)C(O)C(Oc2ccc3c(O)c(NC(=O)c4ccc(O)c(CC=C(C)C)c4)c(=O)oc3c2C)OC1(C)C : 90.8
11. CC1COCCN1c1cc(C2(O)CC3CCC(C2)O3)c2cnn(-c3ccn[nH]3)c2n1 (stereo not given) + COC1C(OC(N)=O)C(O)C(Oc2ccc3c(O)c(NC(=O)c4ccc(O)c(CC=C(C)C)c4)c(=O)oc3c2C)OC1(C)C : 54.3
12. Nc1ccn(C2OC(CO)C(O)C2(F)F)c(=O)n1 (stereo not given) + COC1C(OC(N)=O)C(O)C(Oc2ccc3c(O)c(NC(=O)c4ccc(O)c(CC=C(C)C)c4)c(=O)oc3c2C)OC1(C)C : 38.5
13. COc1cc2cc(C(=O)CCC(=O)O)sc2cc1OC + COC1C(OC(N)=O)C(O)C(Oc2ccc3c(O)c(NC(=O)c4ccc(O)c(CC=C(C)C)c4)c(=O)oc3c2C)OC1(C)C : 95.6
14. C=CC(=O)N1CCN(c2nc(=O)n(-c3c(C)ccnc3C(C)C)c3nc(-c4c(O)cccc4F)c(F)cc23)C(C)C1 (stereo not given) + Nc1ccc(C#CCN(C(=O)Cc2ncc(C(F)(F)F)cc2C(F)(F)F)c2ccc(F)cc2)nn1 : 98.7
15. COc1cccc2c1C(=O)c1c(O)c3c(c(O)c1C2=O)CC(O)(C(=O)CO)CC3OC1CC(N)C(O)C(C)O1 (stereo not given) + COC1C(OC(N)=O)C(O)C(Oc2ccc3c(O)c(NC(=O)c4ccc(O)c(CC=C(C)C)c4)c(=O)oc3c2C)OC1(C)C : 66.4
16. O=C(Nc1ccc(O)c(NS(=O)(=O)c2ccc(F)cc2)c1)c1ccc(-c2ccccc2)cc1 + COC1C(OC(N)=O)C(O)C(Oc2ccc3c(O)c(NC(=O)c4ccc(O)c(CC=C(C)C)c4)c(=O)oc3c2C)OC1(C)C : 96.5
17. CC(C)n1c(=O)n(C)c2cnc3cc(F)c(-c4ccc(OCCCN5CCCCC5)nc4)cc3c21 + Nc1ccc(C#CCN(C(=O)Cc2ncc(C(F)(F)F)cc2C(F)(F)F)c2ccc(F)cc2)nn1 : 115
18. O=C(c1cc(Cc2n[nH]c(=O)c3ccccc23)ccc1F)N1CCN(C(=O)C2CC2)CC1 + Nc1ccc(C#CCN(C(=O)Cc2ncc(C(F)(F)F)cc2C(F)(F)F)c2ccc(F)cc2)nn1 : 106
19. O=C(Nc1ccc(O)c(NS(=O)(=O)c2ccc(F)cc2)c1)c1ccc(-c2ccccc2)cc1 + Nc1ccc(C#CCN(C(=O)Cc2ncc(C(F)(F)F)cc2C(F)(F)F)c2ccc(F)cc2)nn1 : 99.6
20. O=C(c1cc(Cc2n[nH]c(=O)c3ccccc23)ccc1F)N1CCN(C(=O)C2CC2)CC1 + Cc1cccc(N(C)C(=O)C2C(O)CCN2c2nc(C)cc(C(F)(F)F)c2C#N)c1 : 98.3
